The measurements presented in this section are drawn from PubChem BioAssay (NCI).

experiment: NCI Yeast Anticancer Drug Screen. Data for the rad50 strain (AID 155);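 further: 0% = growth of vehicle-only cultures of the same strain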; conditions: S. cerevisiae rad50 strain growth inhibition; at 50.0 µM; stronger effect = higher value
This is part of a sample that, as a whole, favours compounds with a hit. Of some 79,000 tested, about 15% had one in any assay.
Measured growth inhibition, listed per entry for reference.
Just the number in %, nothing appended.

| Compound | Unit | Observed Measurement |
| --- | --- | --- |
| CCCC/C=C/C1C=CC(CCCCCCCC(=O)OCC)C(C(=O)OCC)C1 (stereo unspecified) (tested in a mixture with another compound) | % | 21 |
| c1cnc2ncncc2n1 | % | -2.6 |
| CC(C)CCC(=S)N1CCN(c2ccccc2)CC1 | % | -0.4 |
| CSCCC(N)C(=O)NCCNc1ccc(NCCNC(=O)C(N)CCSC)c2c1C(=O)c1ccccc1C2=O (stereo unspecified) | % | -8.05 |

Name the recorded growth inhibition for `CC(=O)Nc1ccc(C(=O)N2N=C(C)/C(=C/c3cccc([N+](=O)[O-])c3)C2=O)cc1` .
-9.8

What would you report for `c1cc[n+](CC[n+]2ccccn2)nc1` ?
11.7

And `CCOC(=O)c1ccc(Nc2cnc3ccc(C(F)(F)F)cc3n2)cc1` ?
14.4

Record: NC(C1SCCS1)C(O)C(O)C(O)CO (stereo unspecified)
-5.55

###

assay: NCI Yeast Anticancer Drug Screen. Data for the sgs1 mgt1 strain (AID 161);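 further: 0% = growth of cultures given vehicle only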; conditions: S. cerevisiae sgs1 mgt1 strain, at 50.0 µM, stronger effect = higher value
Compounds without any hit were thinned out: in the full panel of roughly 79,000, 15% have a hit.
List of growth inhibition values.
Number in %, nothing else.

growth inhibition lookup needed for O=[N+]([O-])c1ccc(C2SCc3nc4ccccc4n32)cc1 (stereo not given) , thanks.
49.1

# repeat for CCc1cc2c(c3c1CCCC3=O)CC1(Cc3ccc(C(=O)OC)cc3C1)C2 (stereo not given)
-7.6

Another: `NC(=O)C1(c2cccs2)CCCC1`
6.5

What do you have for `COc1cc(CN=c2nc(N(C)C)ss2)cc(OC)c1OC` ?
9.15

Okay, and COC(=O)C1CC=CCC1 (stereo not given) ?
6.85

###

assay: NCI Yeast Anticancer Drug Screen. Data for the mec2-1 strain (AID 157); settings: S. cerevisiae mec2-1 strain, at 50.0 µM, stronger effect = higher value
About 79,000 compounds went through this panel and 15% of them were active in at least one assay; those are over-represented in the sample as a whole.
Value Type: growth inhibition (%)
Just the number in %, nothing appended.

| Molecule | Value Type | Observed Measurement |
| --- | --- | --- |
| COC(=O)c1c(C)cc(OC(=O)c2c(C)cc(OC)c(C)c2OC)c(C)c1O | growth inhibition | 3.5 |
| CCOC(=O)N/N=C(/OCC)c1ccccc1 | growth inhibition | 2.7 |
| O=C(Nc1ccc(NC(=O)Nc2cc(C(F)(F)F)ccc2Oc2ccc(Cl)c(Cl)c2)cc1)Nc1cc(C(F)(F)F)ccc1Oc1ccc(Cl)c(Cl)c1 | growth inhibition | -45.4 |
| O=C(NCCCl)NC(C1CC1)C1CC1 | growth inhibition | -2.9 |

Quick check: growth inhibition of `O=c1cc(-c2cccnc2)oc2ccc(Cl)cc12` ?
-2.8

###

Reported growth inhibition by item:
assay: NCI Yeast Anticancer Drug Screen. Data for the sgs1 mgt1 strain (AID 161);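 further: 0% = growth of cultures given vehicle only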; conditions: S. cerevisiae sgs1 mgt1 strain, at 50.0 µM, stronger effect = higher value
The panel holds about 79,000 compounds, 15% with a hit somewhere; the sample as a whole holds those more often.
# value in %; strip the unit string

Worked examples, 4 compounds total:
| Structure Smiles String | Observed Measurement |
| --- | --- |
| CN(C)c1ccc(C(=O)O)cc1 | -20.4 |
| C=CCNC=O | -6.4 |
| OCC1CCCC1 | -0.05 |
| O=S(=O)(c1ccccc1)N1CCCCN(S(=O)(=O)c2ccccc2)COC1 | -1.65 |

API: the following record is the query input.
# lookup: growth inhibition of `C=Cn1c([N+](=O)[O-])cnc1/C=C/c1ccc(C(=O)OCCN2CCOCC2)cc1`
78.3

###

Assay: NCI Yeast Anticancer Drug Screen. Data for the rad50 strain (AID 155);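 further: 0% = growth of vehicle-only cultures of the same strain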
Conditions: S. cerevisiae rad50 strain growth inhibition; at 50.0 µM; stronger effect = higher value
Experimental: Growth inhibition of yeast strains with defined genetic alterations is measured as a screen for potential anti-cancer activity. Selected strains with alterations in DNA damage repair or cell cycle control were exposed to compounds and growth inhibition was measured relative to vehicle treated controls. The strain used in this assay is rad50
The panel holds about 79,000 compounds, 15% with a hit somewhere; the sample as a whole holds those more often.
Value Type: growth inhibition (%)
Reply with just the number (in %).

Example results:
| Compound | Value Type | Observed Measurement |
| --- | --- | --- |
| COc1c(Cl)cc(NC(=S)C#N)cc1Cl | growth inhibition | 20.2 |
| Cc1ccsc1/C=N/Nc1nc2ccccc2s1 | growth inhibition | 1.7 |
| CCOC(=O)C1=C(C)OC(C)(OC(C)=O)C1=O (centres undefined) | growth inhibition | 14.1 |

Pending compound:
For the compound `CCCc1ccccc1[N+](=O)[O-]` , what growth inhibition is on record?
0.25

###

experiment: NCI Yeast Anticancer Drug Screen. Data for the rad50 strain (AID 155);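 further: 0% = growth of vehicle-only cultures of the same strain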; conditions: S. cerevisiae rad50 strain growth inhibition; at 50.0 µM; stronger effect = higher value
About 79,000 compounds went through this panel and 15% of them were active in at least one assay; those are over-represented in the sample as a whole. The source made the active and inactive calls. No stated cut-off is given here; in the data, active means growth inhibition above about 70%; inactive means the rest.
Value Type: growth inhibition

Below: 3 molecules and their reported growth inhibition.
| Structure Smiles String | growth inhibition |
| --- | --- |
| Cc1ccc(S(=O)(=O)Oc2c(Cl)cc(Cl)cc2Cl)cc1 | -2.4% (inactive) |
| COc1ccc(C)cc1NC(=O)/C=C/c1ccccc1 | 1.6% (inactive) |
| CC(=O)c1sc2c(c1OC(=O)c1ccco1)c(=O)n(-c1ccccc1)c(=S)n2-c1ccccc1 | 20.8% (inactive) |

Please turn your attention to the following entry.
Which growth inhibition is reported for this molecule? `NC(=O)CSc1ccccc1`
8% (inactive)

###

test: NCI Yeast Anticancer Drug Screen. Data for the mec2-1 strain (AID 157); details: S. cerevisiae mec2-1 strain, at 50.0 µM, stronger effect = higher value
Compounds without any hit were thinned out: in the full panel of roughly 79,000, 15% have a hit.
Value Type: growth inhibition (%)
Numbers only here, please. The scale is %.

Sample records with growth inhibition:
| Compound | growth inhibition, % |
| --- | --- |
| CC1(C(=O)O)CCCN1 (stereo not given) | -7.6 |
| CC(=O)Oc1cccc(CN2CCc3ccccc3C2)c1 | -7.95 |
| O=C(c1ccccc1)c1cccnc1 | -18.3 |
| COc1cc2nncc(Sc3cnnc4ccccc34)c2cc1OC | 29.6 |
| Cc1ccc(C(=O)C2CC2c2ccccc2)cc1 (stereo not given) | -1.9 |
| C=C1CCN(c2ccc([N+](=O)[O-])cc2)C1=O | -11.2 |

Look at this compound and give its reported growth inhibition. `NNc1nc2ccc([N+](=O)[O-])cc2s1`
-8.55

And `Nc1ccccc1C(=O)CCc1c[nH]c2ccccc12` ?
9.05

Next up: `Cc1ccc(C(C)C)nc1`
18.5

Same again, this time with `Cc1cc(OCC(=O)O)c(C)cc1Cl`
-17.1

Follow-up item: `Cc1cc(=O)n2c3c(cccc13)CCC2`
-1.5

###

Quick reference for growth inhibition among some compounds
Assay: NCI Yeast Anticancer Drug Screen. Data for the rad50 strain (AID 155);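 further: 0% = growth of vehicle-only cultures of the same strain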
Conditions: S. cerevisiae rad50 strain growth inhibition; at 50.0 µM; stronger effect = higher value
Protocol: Growth inhibition of yeast strains with defined genetic alterations is measured as a screen for potential anti-cancer activity. Selected strains with alterations in DNA damage repair or cell cycle control were exposed to compounds and growth inhibition was measured relative to vehicle treated controls. The strain used in this assay is rad50
The panel holds about 79,000 compounds, 15% with a hit somewhere; the sample as a whole holds those more often.
Give the number; % is assumed, so skip it.

| Compound | growth inhibition (%) |
| --- | --- |
| O=C(O)c1cncc(C(=O)O)c1 | -37 |
| CCOC(=O)C(C(=O)OCC)C(C)(C)C | -96.7 |
| CCC(=O)C1(CCCN(C)C)c2ccccc2Sc2ccccc21 | -14.3 |

Let us move to another entry and its growth inhibition.
So what does the record say about growth inhibition for `Cc1nnc(N/N=C/c2ccccc2)n1/N=C\c1ccccc1` ?
8.05

###

growth inhibition values, listed per item
assay: NCI Yeast Anticancer Drug Screen. Data for the bub3 strain (AID 167); conditions: S. cerevisiae bub3 mutant strain, at 50.0 µM, stronger effect = higher value
The panel holds about 79,000 compounds, 15% with a hit somewhere; the sample as a whole holds those more often.
State just the number; it will be interpreted in %.

// below: answered compounds
| Compound | Unit | growth inhibition |
| --- | --- | --- |
| O=C(Nc1ccccc1Cl)c1ccc(F)cc1 | % | -21.4 |
| NC(=O)Oc1ccc(Cc2ccccc2)cc1 | % | -40.4 |
| CCCCn1c2c(c3ccccc3c1=O)C(=O)c1ccccc1-2 | % | -18 |
| O=S(=O)(Nc1ccc(C(F)(F)F)cc1)c1ccc(F)cc1 | % | -0.95 |
| CC(O)(c1ccc(OCCC[N+](C)(C)C)cc1)C(C)(O)c1ccc(OCCC[N+](C)(C)C)cc1 (stereo unspecified) | % | -16.9 |
| COc1ccc(CCn2cnc3ccccc32)cc1 | % | -11.4 |

Would you kindly share the measured growth inhibition for `[O-]/[N+](=C\c1cccc(O)c1)c1ccccc1` ?
-5.5
